// % Inhibition lookup, one value per entry
test system: Plasmodium falciparum; assay: Primary screen in NF54 nanoGlo assay, in single point, at 2uM, 72h; format: functional, Erythrocyte; details: timepoint 72 hour
About 540 (0.36%) of roughly 150,000 compounds showed an effect of 50% or more. Many of the other results were omitted from the sample, so strong results are more common in it than they were.
The response must be a number in % with no trailing unit.

Worked cases, answers included:
• Cc1ccc(O)c(CNCC2(c3ccccc3Cl)CCOCC2)n1 = 98
• O=C(Nc1cccc2c1CCCC2)c1cccc(S(=O)(=O)N2CCCCC2)c1 = -16
• CN(CC(F)(F)F)C(=O)CN1C(=O)c2ccccc2C(C)(C)C1=O = 2
• O=C(NCC1(c2ccccc2Cl)CCOCC1)N1CCOCC1 = -4

Prompt: Tell me the measured % Inhibition of Cc1ccc2c(c1)c1c(n2CCc2ccncc2)CCCN(C)C1 , please.
Response: 4

Prompt: Tell me the measured % Inhibition of COc1ccc2c(c1)OC13CCN(C)CC1C2C(C(=O)c1ccccc1OC)C(=O)N3 (configuration not stated) , please.
Response: 58

Prompt: Tell me the measured % Inhibition of C[C@@H](C1CC1)N(CC(=O)Nc1ccc(F)cc1F)C1CC1 , please.
Response: -12

Prompt: Tell me the measured % Inhibition of C[C@@H](C1CC1)N(C1CC1)S(=O)(=O)c1cccc2c1N=S=N2 , please.
Response: 38

Prompt: Tell me the measured % Inhibition of C[C@@H]1CN(c2nc(C(F)F)nc3ccc(F)cc23)C[C@H](C)N1 , please.
Response: -4

Prompt: Tell me the measured % Inhibition of COc1ccc(-c2cn3c(n2)CCC3)cc1 , please.
Response: -5

Prompt: Tell me the measured % Inhibition of CC(C)(C)OC1CC(NCC(=O)NCC2CC2)C1(C)C (configuration not stated) , please.
Response: -5

Prompt: Tell me the measured % Inhibition of CCN(CC)c1nc2cc(C(=O)NCc3ccc(C)cc3)ccc2c(=O)n1Cc1ccccc1 , please.
Response: 5

Where these numbers come from: ChEMBL document CHEMBL4888484
